Tested on: UO-31 renal
Assay: NCI-60 one-dose screen, 48 h (100 = growth as untreated, 0 = no growth, -100 = all killed)
Details: 10 µM unless noted
The panel holds about 83,000 compounds, 20% with a hit somewhere; the sample as a whole holds those more often.

Compound	Subject Of Test	Unit String	growth
O=C(CSc1nc2sc3c(c2c(=O)n1-c1ccc(Cl)cc1)CCCC3)NNC(=O)Nc1ccc(Cl)c(C(F)(F)F)c1	UO-31 renal	%	30.4
Cc1cc2nc3c4cc(Cl)ccc4n(CC(=S)NCCN(C)C)c3nc2cc1C	UO-31 renal	%	-68.1
Fc1ccc(-c2cc3nc(C(Cl)Cl)nc(-c4ccc(Cl)cc4)n3n2)cc1	UO-31 renal	%	27.4
OC1CCc2c(-c3ccc4ncnc(N5CCc6cc(F)c(Cl)cc65)c4c3)cncc21 (stereo unspecified)	UO-31 renal	%	19
Cn1ccnc1C(=O)/C=C/c1ccc(NC(=O)Nc2ccc(Cl)cc2)cc1	UO-31 renal	%	97.7
Cc1nc(-c2cc3ccccc3oc2=O)ccc1C(=O)/C=C/c1ccc(N2CCOCC2)cc1	UO-31 renal	%	83.9
CCCC(=O)NC(c1cccnc1)c1cc(C)c2cccnc2c1O (stereo unspecified)	UO-31 renal	%	26.6
O=C(CCN1C(=O)/C(=C/c2ccccc2)SC1=S)N1CCOCC1	UO-31 renal	%	72.9
C#Cc1nc(C2=C(C)C(O)CC2)cs1 (stereo unspecified)	UO-31 renal	%	-66.1
N#Cc1c(-c2ccc(F)cc2)nc2c(C#N)c(Nc3ccccc3)nn2c1N	UO-31 renal	%	90.7
COc1cc(/C=C/C(=O)c2cc(OC)c(OC)c(OC)c2)ccc1OCc1ccccc1	UO-31 renal	%	45.5
Clc1ccc2c(NCCCN3CCOCC3)c3oc4ccc(Cl)cc4c3nc2c1	UO-31 renal	%	32.2
O=C1/C(=C/C2=Cc3ccccc3OC2)SC(=S)N1c1ccc(F)cc1	UO-31 renal	%	86.3
CN(C)c1ccc(-c2c(NC(C)(C)C)nc3c(OCCc4ccccc4)cccn23)cc1	UO-31 renal	%	4.11
COc1cc(/C=C/C(=O)c2cc(OC)c(OC)c(OC)c2)ccc1Oc1nc(NCCO)nc(N2CCOCC2)n1	UO-31 renal	%	20.9
CN(C)CCCNc1c2ccc(Cl)cc2nc2c1oc1ccc(Cl)cc12	UO-31 renal	%	45.2
Cc1sc2c(c1C)c(=O)nc1c(-c3nc(-c4ccc(F)cc4)no3)n[nH]n12	UO-31 renal	%	88.1
C/C(=N\NC(N)=O)c1c(O)sc(=O)[nH]c1=O	UO-31 renal	%	87.1
COC(=O)C(Cc1ccccc1)NS(=O)(=O)/N=C1\NC(=O)NC1=C(Cl)Cl (stereo unspecified)	UO-31 renal	%	81.3
COc1ccc(C(=O)/C=C/c2ccc(OCc3ccc(Cl)cc3)c(OC)c2)cc1OC	UO-31 renal	%	54.1
COc1cccc(-c2nn(-c3ccccc3)cc2-c2ccnc(N3CCN(C(=O)Nc4ccc(F)cc4)CC3)c2)c1	UO-31 renal	%	34.4
